- TEST PROTOCOL: recombinant UMI read abundance after kanamycin selection (control-corrected) (log10(CPM+1)); higher = more efficient recombination; extreme values may be limits of the assay; sequences stand for … in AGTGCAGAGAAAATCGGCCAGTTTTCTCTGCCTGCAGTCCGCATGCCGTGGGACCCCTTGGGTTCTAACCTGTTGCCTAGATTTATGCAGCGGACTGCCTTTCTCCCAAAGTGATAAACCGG…AGGTTGGTTTCACT; site = the 11-nt donor;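 further: IS621 bridge recombinase in Escherichia coli cells against a fixed T5 target plasmid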
MEASURED PROPERTY: recombinant UMI read abundance (log10)
Answer as a number with no unit attached.

Worked set:
Notebook: ATGACAACATGGACCGGTTTTCCCGGTAATCCGTATTTGGA (site ATGACAACTTC) , recombinant UMI read abundance (log10) read as 1.22

Notebook: GGGGCACCATGGACCGGTTTTCCCGGTAATCCGTATTTGCG (site GGGGCACCTGG) , recombinant UMI read abundance (log10) read as 0

Notebook: ACCTATACATGGACCGGTTTTCCCGGTAATCCGTATTTGGG (site ACCTATACTCC) , recombinant UMI read abundance (log10) read as 0.0144

Notebook: CCAGGTGCATGGACCGGTTTTCCCGGTAATCCGTATTTGAG (site CCAGGTGCTGT) , recombinant UMI read abundance (log10) read as 0

Notebook: CGGGAATCATGGACCGGTTTTCCCGGTAATCCGTATTTGAT (site CGGGAACCTAT) , recombinant UMI read abundance (log10) read as 0

New cases:
Notebook: GGAGAGGCATGGACCGGTTTTCCCGGTAATCCGTATTTGGT (site GGAGTGGCTAC) , recombinant UMI read abundance (log10) read as 0.0204

Notebook: CAAGGACCATGGACCGGTTTTCCCGGTAATCCGTATTTGGG (site CTAGGACCTCC) , recombinant UMI read abundance (log10) read as 0.0255

====

- TEST PROTOCOL: recombinant UMI read abundance after kanamycin selection (control-corrected) (log10(CPM+1)); higher = more efficient recombination; extreme values may be limits of the assay; sequences stand for … in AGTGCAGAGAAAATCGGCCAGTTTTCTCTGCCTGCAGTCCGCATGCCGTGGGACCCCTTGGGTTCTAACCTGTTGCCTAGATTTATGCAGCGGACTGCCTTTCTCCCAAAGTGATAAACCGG…AGGTTGGTTTCACT; site = the 11-nt donor
MEASURED PROPERTY: recombinant UMI read abundance (log10)
Answer as a number with no unit attached.

Worked set:
Notebook: CCATCGACATGGACCGGTTTTCCCGGTAATCCGTATTTGTT (site CTATCGACTAA) , recombinant UMI read abundance (log10) read as 0.0452

Notebook: GTAGCCGCATGGACCGGTTTTCCCGGTAATCCGTATTTGCG (site GTAGTCGCTCG) , recombinant UMI read abundance (log10) read as 0.781

Notebook: CCGTTTACATGGACCGGTTTTCCCGGTAATCCGTATTTGCG (site CCGTTTACTTG) , recombinant UMI read abundance (log10) read as 0

Notebook: ACAAGGCCATGGACCGGTTTTCCCGGTAATCCGTATTTGAC (site ACAAGGCCTGT) , recombinant UMI read abundance (log10) read as 0.512

Notebook: ACAGTACCATGGACCGGTTTTCCCGGTAATCCGTATTTGCC (site ACAGTATCTTG) , recombinant UMI read abundance (log10) read as 0.966

New cases:
Notebook: GAATGGCCATGGACCGGTTTTCCCGGTAATCCGTATTTGCA (site GAATCGCCTTG) , recombinant UMI read abundance (log10) read as 0.248

Notebook: ATTGTGTCATGGACCGGTTTTCCCGGTAATCCGTATTTGAC (site ATTGTGTCTGT) , recombinant UMI read abundance (log10) read as 1.6

====

Each item that follows carries a reported recombinant UMI read abundance (log10).
- TEST PROTOCOL: recombinant UMI read abundance after kanamycin selection (control-corrected) (log10(CPM+1)); higher = more efficient recombination; extreme values may be limits of the assay; sequences stand for … in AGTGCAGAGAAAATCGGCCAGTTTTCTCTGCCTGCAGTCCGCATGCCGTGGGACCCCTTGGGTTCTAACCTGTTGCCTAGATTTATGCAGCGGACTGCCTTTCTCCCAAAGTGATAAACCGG…AGGTTGGTTTCACT; site = the 11-nt donor
Answer as a number with no unit attached.

Notebook: CTTCTTTCATGGACCGGTTTTCCCGGTAATCCGTATTTGTA (site CTTCTTTCTTA) , recombinant UMI read abundance (log10) read as 0

Notebook: CGGGCACCATGGACCGGTTTTCCCGGTAATCCGTATTTGAT (site CGGGAACCTAT) , recombinant UMI read abundance (log10) read as 0

Notebook: GACTTTGCATGGACCGGTTTTCCCGGTAATCCGTATTTGCA (site GACTTTGCTTG) , recombinant UMI read abundance (log10) read as 0

Notebook: AGAGGACCATGGACCGGTTTTCCCGGTAATCCGTATTTGGG (site TGAGGACCTCC) , recombinant UMI read abundance (log10) read as 0.0116

Notebook: ACTAGTGCATGGACCGGTTTTCCCGGTAATCCGTATTTGTT (site ACTAGTGCTAT) , recombinant UMI read abundance (log10) read as 0.242

Notebook: CCATTTACATGGACCGGTTTTCCCGGTAATCCGTATTTGCT (site CCGTTTACTAG) , recombinant UMI read abundance (log10) read as 0

New cases:
Notebook: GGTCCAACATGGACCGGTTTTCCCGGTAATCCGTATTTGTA (site CGTCCAACTTA) , recombinant UMI read abundance (log10) read as 0

Notebook: CACTCCTCATGGACCGGTTTTCCCGGTAATCCGTATTTGCA (site CACTCCTCTAG) , recombinant UMI read abundance (log10) read as 0.743

Notebook: CAGGAAACATGGACCGGTTTTCCCGGTAATCCGTATTTGCA (site CCGGAAACTTG) , recombinant UMI read abundance (log10) read as 0

====

- TEST PROTOCOL: recombinant UMI read abundance after kanamycin selection (control-corrected) (log10(CPM+1)); higher = more efficient recombination; extreme values may be limits of the assay; sequences stand for … in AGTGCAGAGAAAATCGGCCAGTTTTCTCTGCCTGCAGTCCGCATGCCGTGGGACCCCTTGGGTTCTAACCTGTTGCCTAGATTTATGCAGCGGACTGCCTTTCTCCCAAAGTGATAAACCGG…AGGTTGGTTTCACT; site = the 11-nt donor
Each item that follows carries a reported recombinant UMI read abundance (log10).
Answer as a number with no unit attached.

Notebook: ACAAGTGCATGGACCGGTTTTCCCGGTAATCCGTATTTGGT (site ACTAGTGCTAC) , recombinant UMI read abundance (log10) read as 1.16

New cases:
Notebook: CGTTGTCCATGGACCGGTTTTCCCGGTAATCCGTATTTGAA (site CGTTGTCCTTT) , recombinant UMI read abundance (log10) read as 0.00747

Notebook: GATTTTCCATGGACCGGTTTTCCCGGTAATCCGTATTTGCT (site GATTATCCTAG) , recombinant UMI read abundance (log10) read as 0

Notebook: GATGGGACATGGACCGGTTTTCCCGGTAATCCGTATTTGAC (site GATTGGACTGT) , recombinant UMI read abundance (log10) read as 0

Notebook: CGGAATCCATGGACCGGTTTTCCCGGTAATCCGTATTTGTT (site CGAAATCCTAA) , recombinant UMI read abundance (log10) read as 0

Notebook: GATTAGACATGGACCGGTTTTCCCGGTAATCCGTATTTGCT (site TTGCTCCCTGT) , recombinant UMI read abundance (log10) read as 0

Notebook: AACCGTCCATGGACCGGTTTTCCCGGTAATCCGTATTTGAG (site AACCGTCCTAT) , recombinant UMI read abundance (log10) read as 0.0112

Notebook: GGTCCAACATGGACCGGTTTTCCCGGTAATCCGTATTTGCA (site GGTCCAACTTA) , recombinant UMI read abundance (log10) read as 0.0117

Notebook: TCAGCTCCATGGACCGGTTTTCCCGGTAATCCGTATTTGGC (site TCAGCTCCTGC) , recombinant UMI read abundance (log10) read as 0.823

Notebook: CGGCTGCCATGGACCGGTTTTCCCGGTAATCCGTATTTGTT (site CGGCTGCCTAA) , recombinant UMI read abundance (log10) read as 0.0892

Notebook: ATGAGCACATGGACCGGTTTTCCCGGTAATCCGTATTTGGC (site ATGAGCACTGC) , recombinant UMI read abundance (log10) read as 2.98

Notebook: CGGTCGACATGGACCGGTTTTCCCGGTAATCCGTATTTGTT (site CGTTCGACTAA) , recombinant UMI read abundance (log10) read as 0.00264

Notebook: TACGCCACATGGACCGGTTTTCCCGGTAATCCGTATTTGAG (site TACGCCACTCT) , recombinant UMI read abundance (log10) read as 0.652

Notebook: GTGAAGCCATGGACCGGTTTTCCCGGTAATCCGTATTTGGG (site GAGAAGCCTCC) , recombinant UMI read abundance (log10) read as 0.0044

Notebook: AGAAAGACATGGACCGGTTTTCCCGGTAATCCGTATTTGCT (site AGAAAGACTAG) , recombinant UMI read abundance (log10) read as 2.1
